Reference source: ChEMBL document CHEMBL4330117

# Experimental Protocol: Cytotoxicity against HEK293T cells after 24 hrs by MTT assay
# Assay type: cell-based, HEK-293T
# Particulars: human
Lab note: anything with CC50 at 24 h below 200 µM is marked satisfied; values at 200 µM or higher are marked not satisfied.

Query :: Lab note: CC50 at 24 h threshold 200 µM. Does this molecule come in strictly under it? "O=S(=O)(c1ccccc1)n1c(-c2cn(-c3ccccc3)nc2-c2ccc(F)cc2)nc2ccccc21"
Result :: satisfied

Query :: Lab note: CC50 at 24 h threshold 200 µM. Does this molecule come in strictly under it? "O=S(=O)(c1ccc(Cl)cc1)n1c(-c2cn(-c3ccccc3)nc2-c2ccc(F)cc2)nc2ccccc21"
Result :: satisfied

Query :: Lab note: CC50 at 24 h threshold 200 µM. Does this molecule come in strictly under it? "Cc1ccc(-c2nn(-c3ccccc3)cc2-c2nc3ccccc3n2S(=O)(=O)c2cc(C)ccc2C)cc1"
Result :: satisfied

Query :: Lab note: CC50 at 24 h threshold 200 µM. Does this molecule come in strictly under it? "O=[N+]([O-])c1ccc(S(=O)(=O)n2c(-c3cn(-c4ccccc4)nc3-c3ccc(F)cc3)nc3ccccc32)cc1"
Result :: satisfied

====

# Target System: Tubulin (Bos taurus) (UniProt Q6B856+Q862L2+Q862F3)
# Experimental Protocol: Inhibition of vinblastine binding to bovine brain tubulin at 5 uM
Measure Name: inhibition

Answered examples (3):
Chemical Structure | inhibition
COc1ccc(S(=O)(=O)n2c(-c3cn(-c4ccccc4)nc3-c3ccc(F)cc3)nc3ccccc32)cc1 | 2.98%
O=S(=O)(c1ccc(C(F)(F)F)cc1)n1c(-c2cn(-c3ccccc3)nc2-c2ccc(F)cc2)nc2ccccc21 | 0.51%
O=S(=O)(c1ccc(Br)cc1)n1c(-c2cn(-c3ccccc3)nc2-c2ccc(F)cc2)nc2ccccc21 | 3.02%

Query :: For the compound "Cc1ccc(-c2nn(-c3ccccc3)cc2-c2nc3ccccc3[nH]2)cc1" , what inhibition is on record?
Result :: 0.05%

Query :: For the compound "O=S(=O)(c1ccccc1)n1c(-c2cn(-c3ccccc3)nc2-c2ccc(F)cc2)nc2ccccc21" , what inhibition is on record?
Result :: 0.05%

Query :: For the compound "O=S(=O)(c1ccc(F)cc1)n1c(-c2cn(-c3ccccc3)nc2-c2ccc(F)cc2)nc2ccccc21" , what inhibition is on record?
Result :: 1.32%

Query :: For the compound "Cc1ccc(C)c(S(=O)(=O)n2c(-c3cn(-c4ccccc4)nc3-c3ccc(F)cc3)nc3ccccc32)c1" , what inhibition is on record?
Result :: 0.62%

Query :: For the compound "Cc1ccc(-c2nn(-c3ccccc3)cc2-c2nc3ccccc3n2S(=O)(=O)c2ccccc2)cc1" , what inhibition is on record?
Result :: 0.21%

Query :: For the compound "O=[N+]([O-])c1ccc(S(=O)(=O)n2c(-c3cn(-c4ccccc4)nc3-c3ccc(C(F)(F)F)cc3)nc3ccccc32)cc1" , what inhibition is on record?
Result :: 0.14%

Query :: For the compound "O=S(=O)(c1ccc(Cl)cc1)n1c(-c2cn(-c3ccccc3)nc2-c2ccc(F)cc2)nc2ccccc21" , what inhibition is on record?
Result :: -2.09 to 2.7%

Query :: For the compound "O=S(=O)(c1ccccc1)n1c(-c2cn(-c3ccccc3)nc2-c2ccc(C(F)(F)F)cc2)nc2ccccc21" , what inhibition is on record?
Result :: 0.52%

Query :: For the compound "Cc1ccc(-c2nn(-c3ccccc3)cc2-c2nc3ccccc3n2S(=O)(=O)c2ccc(F)cc2)cc1" , what inhibition is on record?
Result :: 0.07%

====

# Experimental Protocol: Cytotoxicity against HEK293T cells after 24 hrs by MTT assay
# Type: cell-based, HEK-293T
# Particulars: human
Each entry below carries its recorded CC50 at 24 h.
// note: answer is a bare numeric in µM

Answered examples (3):
Molecule | CC50 at 24 h, µM
COc1ccc(/C=C\c2cc(OC)c(OC)c(OC)c2)cc1O [COMBRETASTATIN A4] | 162
COc1cc2c(c(OC)c1OC)-c1ccc(OC)c(=O)cc1[C@@H](NC(C)=O)CC2 [COLCHICINE] | 129
FC(F)(F)c1ccc(-c2nn(-c3ccccc3)cc2-c2nc3ccccc3[nH]2)cc1 | 167

Kindly consider the entry below.
Query :: For the molecule "O=S(=O)(c1ccc(Br)cc1)n1c(-c2cn(-c3ccccc3)nc2-c2ccc(C(F)(F)F)cc2)nc2ccccc21" , what CC50 at 24 h is on record?
Result :: 185

====

# Experimental Protocol: Cytotoxicity against mouse primary hepatocytes after 24 hrs by MTT assay
# Assay type: cell-based, Hepatocyte
Lab note: anything with CC50 at 24 h below 200 µM is marked rule met; values at 200 µM or higher are marked rule not met.

Worked cases, answers included:
Chemical Structure | Assigned Label
COc1ccc(/C=C\c2cc(OC)c(OC)c(OC)c2)cc1O | rule met
O=S(=O)(c1ccc(C(F)(F)F)cc1)n1c(-c2cn(-c3ccccc3)nc2-c2ccc(C(F)(F)F)cc2)nc2ccccc21 | rule met
O=S(=O)(c1ccccc1)n1c(-c2cn(-c3ccccc3)nc2-c2ccc(C(F)(F)F)cc2)nc2ccccc21 | rule met
O=S(=O)(c1ccc(Cl)cc1)n1c(-c2cn(-c3ccccc3)nc2-c2ccc(F)cc2)nc2ccccc21 | rule not met
Cc1ccc(C)c(S(=O)(=O)n2c(-c3cn(-c4ccccc4)nc3-c3ccc(F)cc3)nc3ccccc32)c1 | rule met

Query :: Lab note: CC50 at 24 h threshold 200 µM. Does this molecule come in strictly under it? "Cc1ccc(-c2nn(-c3ccccc3)cc2-c2nc3ccccc3n2S(=O)(=O)c2cc(C)ccc2C)cc1"
Result :: rule not met

Query :: Lab note: CC50 at 24 h threshold 200 µM. Does this molecule come in strictly under it? "Cc1ccc(-c2nn(-c3ccccc3)cc2-c2nc3ccccc3n2S(=O)(=O)c2ccc(C(F)(F)F)cc2)cc1"
Result :: rule met

Query :: Lab note: CC50 at 24 h threshold 200 µM. Does this molecule come in strictly under it? "Cc1ccc(-c2nn(-c3ccccc3)cc2-c2nc3ccccc3n2S(=O)(=O)c2ccccc2)cc1"
Result :: rule met

====

Each entry below carries its recorded inhibition.
# Target System: Tubulin (Bos taurus) (UniProt Q6B856+Q862L2+Q862F3)
# Experimental Protocol: Inhibition of vinblastine binding to bovine brain tubulin at 5 uM
// note: answer is a bare numeric in %

Answered examples (3):
Chemical Structure | Target System | inhibition [%]
Cc1ccc(-c2nn(-c3ccccc3)cc2-c2nc3ccccc3n2S(=O)(=O)c2ccc(C)cc2)cc1 | Tubulin (Bos taurus) (UniProt Q6B856+Q862L2+Q862F3) | 0.18
O=S(=O)(c1ccc(C(F)(F)F)cc1)n1c(-c2cn(-c3ccccc3)nc2-c2ccc(C(F)(F)F)cc2)nc2ccccc21 | Tubulin (Bos taurus) (UniProt Q6B856+Q862L2+Q862F3) | 0.05
Cc1ccc(-c2nn(-c3ccccc3)cc2-c2nc3ccccc3n2S(=O)(=O)c2cc(C)ccc2C)cc1 | Tubulin (Bos taurus) (UniProt Q6B856+Q862L2+Q862F3) | 0.07

Kindly consider the entry below.
Query :: For the compound "O=S(=O)(c1ccc(F)cc1)n1c(-c2cn(-c3ccccc3)nc2-c2ccc(C(F)(F)F)cc2)nc2ccccc21" , what inhibition is on record?
Result :: 0.65

====

# Target System: Tubulin (Bos taurus) (UniProt Q6B856+Q862L2+Q862F3)
# Experimental Protocol: Inhibition of [3H]colchicine binding to bovine brain tubulin at 5 uM
Measure Name: inhibition (%)
// note: answer is a bare numeric in %

Answered examples (3):
Chemical Structure | Units Symbol | inhibition
Cc1ccc(-c2nn(-c3ccccc3)cc2-c2nc3ccccc3n2S(=O)(=O)c2ccc(F)cc2)cc1 | % | 53
O=S(=O)(c1ccc(C(F)(F)F)cc1)n1c(-c2cn(-c3ccccc3)nc2-c2ccc(F)cc2)nc2ccccc21 | % | 50
O=S(=O)(c1ccccc1)n1c(-c2cn(-c3ccccc3)nc2-c2ccc(C(F)(F)F)cc2)nc2ccccc21 | % | 61

Query :: For the compound "COc1ccc(S(=O)(=O)n2c(-c3cn(-c4ccccc4)nc3-c3ccc(C(F)(F)F)cc3)nc3ccccc32)cc1" , what inhibition is on record?
Result :: 85

Query :: For the compound "O=S(=O)(c1ccc(Cl)cc1)n1c(-c2cn(-c3ccccc3)nc2-c2ccc(C(F)(F)F)cc2)nc2ccccc21" , what inhibition is on record?
Result :: 40

Query :: For the compound "O=[N+]([O-])c1ccc(S(=O)(=O)n2c(-c3cn(-c4ccccc4)nc3-c3ccc(C(F)(F)F)cc3)nc3ccccc32)cc1" , what inhibition is on record?
Result :: 63

====

# Test system: HepG2
# Experimental Protocol: Antiproliferative activity against human HepG2 cells after 24 hrs by MTT assay
# Type: functional, cell-based
# Particulars: HepG2, 24 h
Each entry below carries its recorded log10 IC50.
# log10 transformed; quantity=IC50; unit=nM

Answered examples (3):
Chemical Structure | Target System | Measure Name | Test Result
O=S(=O)(c1ccc(F)cc1)n1c(-c2cn(-c3ccccc3)nc2-c2ccc(F)cc2)nc2ccccc21 | HepG2 | log10 IC50 | 3.55
Cc1ccc(-c2nn(-c3ccccc3)cc2-c2nc3ccccc3n2S(=O)(=O)c2ccc(Cl)cc2)cc1 | HepG2 | log10 IC50 | 3.74
Cc1ccc(-c2nn(-c3ccccc3)cc2-c2nc3ccccc3n2S(=O)(=O)c2cc(C)ccc2C)cc1 | HepG2 | log10 IC50 | 2.66

Query :: For the compound "O=S(=O)(c1ccc(Cl)cc1)n1c(-c2cn(-c3ccccc3)nc2-c2ccc(F)cc2)nc2ccccc21" , what log10 IC50 is on record?
Result :: 3.63

Query :: For the compound "Cc1ccc(C)c(S(=O)(=O)n2c(-c3cn(-c4ccccc4)nc3-c3ccc(C(F)(F)F)cc3)nc3ccccc32)c1" , what log10 IC50 is on record?
Result :: 2.52

Query :: For the compound "Cc1ccc(C)c(S(=O)(=O)n2c(-c3cn(-c4ccccc4)nc3-c3ccc(F)cc3)nc3ccccc32)c1" , what log10 IC50 is on record?
Result :: 2.61

Query :: For the compound "O=S(=O)(c1ccccc1)n1c(-c2cn(-c3ccccc3)nc2-c2ccc(F)cc2)nc2ccccc21" , what log10 IC50 is on record?
Result :: 2.86

Query :: For the compound "Cc1ccc(-c2nn(-c3ccccc3)cc2-c2nc3ccccc3[nH]2)cc1" , what log10 IC50 is on record?
Result :: 3.80
